This section presents sequences with their documented apparent KD of MS2 coat protein values.
system: MS2 coat protein; test: apparent KD of MS2 coat protein; designed switch direction (-1 OFF switch, 1 ON switch): 1; higher = weaker reporter binding; settings: input ligand: none
Readout name: apparent KD of MS2 coat protein (nM)

[[record]]
macromolecule_sequence = "AGCUAGUACGAAGGAUAUACAAACAUGAGGAUCACCCAUGUAUACAUGGUUUAAUGAGACUACAUGUAGAAGGUCGUACUAGCA [SameState NG2 #13] (Eterna round: R96, puzzle: Same State NG 2)"
measured_on = "MS2 coat protein"
readout_name = "apparent KD of MS2 coat protein"
test_result = 1030

[[record]]
macromolecule_sequence = "GCGAGCGUACUUGCAACAUGAGGAUCACCCAUGUUAACUGGACAGGAUAUGGUACCGUUUCGGUACCAGAAGGGUUCCUCAAUG [JL SSNG3 3.62] (Eterna round: R96, puzzle: Same State NG 3)"
measured_on = "MS2 coat protein"
readout_name = "apparent KD of MS2 coat protein"
test_result = 214

[[record]]
macromolecule_sequence = "CCAAUGUACAAUUUAGAUCUACAUGAGGAUCACCCAUGUACAGAGGAUAUCAGCUCGAUUAGAGCUGAGAAGGCUGAAUUAAUU [SSNG3/3-A2] (Eterna round: R96, puzzle: Same State NG 3)"
measured_on = "MS2 coat protein"
readout_name = "apparent KD of MS2 coat protein"
test_result = 266

[[record]]
macromolecule_sequence = "GAAGACAUAGUUCAGGAUAUAGGAAUAGUCACAUGAGGAUCACCCAUGUGCAUUUAUAUGCGCACUUAGAAGGGAGGUAGUUAUC [SameState2 Malc#23] (Eterna round: R96, puzzle: Same State 2)"
measured_on = "MS2 coat protein"
readout_name = "apparent KD of MS2 coat protein"
test_result = 39.4

[[record]]
macromolecule_sequence = "AUAACACCGGCAGGAUAUGGGAAAGGAAGUGUACCAGAAGGGCCGGAACGGCGAUGGACAUGAGGAUCACCCAUGUCUUAGCCU [PowerStrip SSNG 1.24] (Eterna round: R96, puzzle: Same State NG 1)"
measured_on = "MS2 coat protein"
readout_name = "apparent KD of MS2 coat protein"
test_result = 17.3

